These data points were gathered from patent US20030166645A1.

Listing of recorded MIC E coli (ImpA) MIC9 by entry.
- Tested on: E coli (ImpA)
- test name: Microdilution antimicrobial susceptibility test (MIC)
- Type: cell-based
- condition set: broth microdilution, 18-24 h, MIC = 90% inhibition of growth
measurement label: MIC E coli (ImpA) MIC9

O=[N+]([O-])c1ccc(-c2nnc(S)n2-c2ccc(Oc3ccccc3)cc2)o1 [Compound 143]; <0.12 µg/mL
O=[N+]([O-])c1ccc(-c2nnc(S)n2-c2ccc(Br)cc2)o1 [Compound 141]; <0.12 µg/mL
O=[N+]([O-])c1ccc(-c2nnc(S(=O)(=O)O)n2Cc2ccccc2)o1 [Compound 128]; >64 µg/mL
O=[N+]([O-])c1ccc(-c2nnc(S)n2-c2ccc(Br)c(Cl)c2)o1 [Compound 142]; <0.12 µg/mL
O=[N+]([O-])c1ccc(-c2nnc(S(=O)(=O)O)n2C2CCCCC2)o1 [Compound 131]; >64 µg/mL
